Data provenance: the supplement of paper PMC10567573

B1: LOXL2 (parent)
chain: FSPDGPSRFRKAYKPEQPLVRLRG

- Variants of: B1
- measurement-description: protein stability index of a GFP-peptide fusion (GPS, HEK-293T) (PSI 1-6); higher = more stable;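 further: lentivirally expressed fusions sorted by FACS into six bins by GFP to DsRed ratio, PSI derived from sequencing read proportions per bin multiplied by bin number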
- test-context: c terminus: a fixed tail appended
Decision: protein stability index >= 2 yields condition met, all other cases yield condition not met.

P18V: condition met
V20R: condition met
K11E: condition met
K14R: condition not met
Q17D: condition met
P3I: condition met
Q17F: condition met
Y13M: condition not met
V20P: condition not met
S2H: condition met
G5T: condition not met
P18T: condition not met
S7G: condition met
R8S: condition met
G24M: condition met
R21L: condition not met
P15Y: condition not met
F9I: condition met
Q17T: condition not met
L19E: condition met
R21K: condition not met
E16H: condition not met
K11Q: condition met
L19G: condition met
D4E: condition met
P6D: condition not met
P6H: condition met
E16I: condition met
E16T: condition met
V20D: condition met
R10F: condition met
Y13G: condition met
P15D: condition not met
V20E: condition not met
K11G: condition met
L19K: condition not met
F1D: condition met
S7I: condition met
G24K: condition not met
E16K: condition met
F9C: condition met
D4F: condition not met
P15S: condition met
Q17H: condition not met
G5N: condition met
F9S: condition met
F1P: condition met
R8F: condition met
S7D: condition not met
E16C: condition met
P15C: condition met
G24F: condition not met
